Target system: Polyunsaturated fatty acid 5-lipoxygenase (Homo sapiens, UniProt P09917)
Sequence (P09917 whole entry): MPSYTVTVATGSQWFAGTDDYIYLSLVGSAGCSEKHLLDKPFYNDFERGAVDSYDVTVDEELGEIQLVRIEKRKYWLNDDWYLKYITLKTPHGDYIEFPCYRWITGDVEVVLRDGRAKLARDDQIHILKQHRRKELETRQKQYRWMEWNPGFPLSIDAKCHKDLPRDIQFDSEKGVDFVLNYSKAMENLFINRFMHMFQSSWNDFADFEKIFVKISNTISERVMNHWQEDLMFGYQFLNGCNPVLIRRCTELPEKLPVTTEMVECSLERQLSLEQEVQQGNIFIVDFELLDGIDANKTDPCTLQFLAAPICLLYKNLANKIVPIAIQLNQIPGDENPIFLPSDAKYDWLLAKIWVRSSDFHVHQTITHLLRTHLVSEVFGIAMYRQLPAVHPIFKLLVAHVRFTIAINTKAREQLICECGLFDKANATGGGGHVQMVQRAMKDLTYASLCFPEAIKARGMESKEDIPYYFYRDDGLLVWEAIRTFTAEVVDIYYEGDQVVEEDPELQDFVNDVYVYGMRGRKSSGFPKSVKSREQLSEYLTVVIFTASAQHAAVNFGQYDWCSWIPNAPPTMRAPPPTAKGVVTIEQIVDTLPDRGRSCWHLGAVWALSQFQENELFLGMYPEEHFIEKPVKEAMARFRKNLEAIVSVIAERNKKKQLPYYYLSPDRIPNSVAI
Method description: Inhibition of partially purified human 5-LO expressed in Escherichia coli
Attribute measured: pIC50
// scale note: pIC50 = -log10(conc_M); give the bare number

Sample records with pIC50:
Molecule	Value reported
COc1cc(C)c2c(c1C)CC(C(C)C(=O)NCc1ccco1)CC2 (stereo not given)	6.05
CCCOc1cc(C)c2c(c1C)CC(C(C)C(=O)NCc1cccs1)CC2 (stereo not given)	5.52

# returns recorded pIC50 (system: Polyunsaturated fatty acid 5-lipoxygenase (Homo sapiens, UniProt P09917)) for COc1cc(C)c2c(c1C)CC(C(C)C(=O)NC(C)(C)C)CC2 (stereo not given)
5.40

Moving on to the next molecule: Cc1cc(OCCN(C)C)c(C)c2c1CCC(C(C)C(=O)Nc1nccs1)C2 (stereo not given)
6.00

Moving on to the next molecule: CCCOc1cc(C)c2c(c1C)CC(C(C)C(=O)Nc1ncc(C)s1)CC2 (stereo not given)
6.10

Moving on to the next molecule: CC1C(=O)OC2C1CCC1(C)Cc3sc(NC(=O)Nc4ccc(F)cc4F)nc3C(C)C21 (stereo not given)
6.22
